Ref: paper PMC9490041

Entries and their IC50 values follow.
Molecular target: PSG G322A G335A (PSD-95)
Test: FP displacement (competition) of FITC-15 AA CRIPT by library peptide, IC50 and Ki
Settings: read-out: IC50 (µM), PSG G322A G335A; FP displacement of FITC-15 AA CRIPT probe by PSD library peptide; protein PSG G322A G335A
The response must be a number in µM with no trailing unit.

CC(=O)N[C@@H](Cc1ccc(O)cc1)C(=O)N[C@@H](Cc1c[nH]cn1)C(=O)N[C@@H](Cc1c[nH]cn1)C(=O)N[C@H](C(=O)N[C@@H](CO)C(=O)N[C@@H](Cc1ccc(O)cc1)C(=O)N[C@H](C(=O)N[C@@H](C)C(=O)N[C@@H](CO)C(=O)N[C@@H](CCCCN)C(=O)N[C@H](C(=O)N[C@@H](CCC(=O)O)C(=O)N[C@H](C(=O)N[C@H](C(=O)N[C@H](C(=O)O)C(C)C)[C@@H](C)O)C(C)C)[C@@H](C)O)[C@@H](C)O)[C@@H](C)O : 1170

QUERY: Data request, read-out IC50, for CC[C@H](C)[C@H](NC(=O)[C@H](CCC(=O)O)NC(=O)[C@@H](NC(=O)[C@H](CO)NC(=O)[C@H](CCC(=O)O)NC(=O)[C@@H](NC(=O)[C@H](CCCNC(=N)N)NC(=O)[C@H](CCC(=O)O)NC(=O)[C@H](CC(C)C)NC(=O)[C@H](CCCNC(=N)N)NC(=O)[C@H](CO)NC(=O)[C@@H]1CCCN1C(=O)[C@@H](NC(=O)[C@H](Cc1c[nH]c2ccccc12)NC(=O)[C@H](Cc1ccc(O)cc1)NC(C)=O)[C@@H](C)O)[C@@H](C)CC)[C@@H](C)O)C(=O)O
RESULT: 662
